The compounds listed here are annotated with their Ki.
- ASSAY TARGET: GCN2 kinase (Homo sapiens)
- ASSAY DETAILS: GCN2 enzyme inhibition assay (Transcreener ADP2 fluorescence polarization)
- Format: biochemical
- COND: Enzyme activity for compounds of Formula IV; Ki(app), 280 μM ATP, 25° C.
ASSAY READOUT: Ki

{"COMPOUND": "CC(=O)NC1CCCN(c2ccnc(-c3cnc4cnc(C(N)=O)cn34)n2)C1 (centres unmarked)", "REPORTED MEASUREMENT": "0.1 to 1 µM"}
{"COMPOUND": "CC1CN(c2ccnc(-c3cnc4cnc(C(F)(F)F)cn34)n2)CC(c2cn[nH]c2)O1 (single isomer, unassigned) [IV-15]", "REPORTED MEASUREMENT": "0.01 to 0.1 µM"}
{"COMPOUND": "CN1CCN(c2ccnc(-c3cnc4cnc(C(F)F)cn34)n2)CC12CCNCC2", "REPORTED MEASUREMENT": "0.1 to 1 µM"}
{"COMPOUND": "CC1C(c2cn[nH]c2)CC(P(C)(C)=O)CN1c1ccnc(-c2cnc3cnc(C(F)(F)F)cn23)n1 (centres unmarked) [IV-697]", "REPORTED MEASUREMENT": "0.1 to 1 µM"}
{"COMPOUND": "CC1CN(c2cc(OCCO)nc(-c3cnc4cnc(C(F)(F)F)cn34)n2)C(C)C(c2cn[nH]c2)N1 (centres unmarked)", "REPORTED MEASUREMENT": "< 0.01 µM"}
{"COMPOUND": "FC(F)c1cn2c(-c3nccc(N4CCC(c5cc[nH]n5)C4)n3)cnc2cn1 (centres unmarked)", "REPORTED MEASUREMENT": "0.1 to 1 µM"}
{"COMPOUND": "NC(=O)c1cn2c(-c3cccc(-c4cccc5[nH]ccc45)n3)cnc2cn1", "REPORTED MEASUREMENT": "0.01 to 0.1 µM"}
{"COMPOUND": "OCCC1CCN(c2ccnc(-c3cnc4cnc(C(F)(F)F)cn34)n2)CC1", "REPORTED MEASUREMENT": "0.1 to 1 µM"}

---

- ASSAY TARGET: GCN2 kinase (Homo sapiens, UniProt Q9P2K8)
- Sequence (Q9P2K8 whole entry): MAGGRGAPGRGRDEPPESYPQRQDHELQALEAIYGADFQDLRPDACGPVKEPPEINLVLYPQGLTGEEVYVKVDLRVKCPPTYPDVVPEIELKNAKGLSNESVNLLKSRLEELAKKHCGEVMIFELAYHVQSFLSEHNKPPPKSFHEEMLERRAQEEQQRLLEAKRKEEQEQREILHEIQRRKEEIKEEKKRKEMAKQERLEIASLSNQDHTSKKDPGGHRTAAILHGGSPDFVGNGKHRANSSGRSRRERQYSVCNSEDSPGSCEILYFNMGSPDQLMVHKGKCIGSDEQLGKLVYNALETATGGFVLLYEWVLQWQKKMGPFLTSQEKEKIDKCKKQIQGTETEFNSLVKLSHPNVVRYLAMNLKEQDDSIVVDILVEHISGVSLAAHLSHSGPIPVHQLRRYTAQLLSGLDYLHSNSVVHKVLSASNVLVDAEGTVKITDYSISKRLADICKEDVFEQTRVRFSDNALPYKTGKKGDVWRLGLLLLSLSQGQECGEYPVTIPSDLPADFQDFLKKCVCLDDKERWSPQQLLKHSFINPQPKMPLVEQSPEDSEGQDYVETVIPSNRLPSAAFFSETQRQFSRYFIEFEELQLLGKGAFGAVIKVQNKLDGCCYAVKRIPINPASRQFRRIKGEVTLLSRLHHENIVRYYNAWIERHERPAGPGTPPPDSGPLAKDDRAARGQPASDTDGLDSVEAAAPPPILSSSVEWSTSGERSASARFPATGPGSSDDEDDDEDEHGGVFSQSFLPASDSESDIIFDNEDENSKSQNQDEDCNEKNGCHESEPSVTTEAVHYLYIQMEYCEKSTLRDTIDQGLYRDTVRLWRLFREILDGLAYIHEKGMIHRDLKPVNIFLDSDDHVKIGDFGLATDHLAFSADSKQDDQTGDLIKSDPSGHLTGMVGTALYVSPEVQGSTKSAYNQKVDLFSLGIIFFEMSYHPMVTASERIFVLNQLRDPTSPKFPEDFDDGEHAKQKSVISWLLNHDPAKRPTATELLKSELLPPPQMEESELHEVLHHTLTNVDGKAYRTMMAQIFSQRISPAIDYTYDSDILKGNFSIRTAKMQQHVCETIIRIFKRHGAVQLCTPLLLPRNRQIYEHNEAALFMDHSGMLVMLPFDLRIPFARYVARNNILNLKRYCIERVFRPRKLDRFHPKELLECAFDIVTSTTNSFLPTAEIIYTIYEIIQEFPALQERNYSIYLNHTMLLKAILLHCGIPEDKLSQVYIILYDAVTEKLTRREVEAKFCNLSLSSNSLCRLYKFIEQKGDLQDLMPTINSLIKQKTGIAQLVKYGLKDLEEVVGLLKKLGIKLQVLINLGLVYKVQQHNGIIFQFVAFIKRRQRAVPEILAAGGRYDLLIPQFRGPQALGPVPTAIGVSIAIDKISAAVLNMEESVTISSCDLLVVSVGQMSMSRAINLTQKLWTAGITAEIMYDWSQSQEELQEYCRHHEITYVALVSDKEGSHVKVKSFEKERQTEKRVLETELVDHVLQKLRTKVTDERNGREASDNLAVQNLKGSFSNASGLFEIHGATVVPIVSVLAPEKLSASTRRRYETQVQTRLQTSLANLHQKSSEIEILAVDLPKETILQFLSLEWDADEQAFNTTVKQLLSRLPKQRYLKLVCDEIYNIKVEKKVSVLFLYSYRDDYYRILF
- ASSAY DETAILS: GCN2 enzyme inhibition assay (Transcreener ADP2 fluorescence polarization)
- Assay type: biochemical
- COND: Enzyme activity for compounds of Formula IV; Ki(app), 280 μM ATP, 25° C.
pKi: −log10 of the molar value.

{"MOLECULE": "CC1(C)CN(c2ccnc(-c3cnc4cnc(Br)cn34)n2)CC(c2cn[nH]c2)N1 (centres unmarked)", "pKi": "7.00 to 8.00"}
{"MOLECULE": "CC1C(C(N)=O)CCN1c1ccnc(-c2cnc3cnc(C(F)(F)F)cn23)n1 (single isomer, unassigned) [IV-615]", "pKi": "7.00 to 8.00"}
{"MOLECULE": "N#CC1CN(c2ccnc(-c3cnc4cnc(C(F)(F)F)cn34)n2)CCO1 (centres unmarked)", "pKi": "< 6.00"}
{"MOLECULE": "Cn1cc(NC(=O)[C@H]2CCCN(c3ccnc(-c4cnc5cnc(C(F)(F)F)cn45)n3)C2)cn1", "pKi": "< 6.00"}
{"MOLECULE": "CC(=O)Nc1ccc(-c2cn3c(-c4nccc(N5CCN(C(C)=O)CC5)n4)cnc3cn2)cc1", "pKi": "6.00 to 7.00"}
{"MOLECULE": "FC(F)(F)c1cn2c(-c3nccc(N4CCOCC4)n3)cnc2cn1", "pKi": "6.00 to 7.00"}
{"MOLECULE": "CC1CN(c2ccnc(-c3cnc4cnc(Cl)cn34)n2)C(C)C(c2c[nH]cn2)N1 (centres unmarked)", "pKi": "7.00 to 8.00"}
{"MOLECULE": "CC1C(c2cn[nH]c2)NCCN1c1ccnc(-c2cnc3cnc(C(F)(F)F)cn23)n1 (single isomer, unassigned) [IV-358]", "pKi": "> 8.00"}

---

- ASSAY TARGET: intracellular GCN2 (phosphorylation of the GCN2 substrate eIF2α) (Homo sapiens, UniProt Q9P2K8)
- Sequence (Q9P2K8 whole entry): as above
- ASSAY DETAILS: GCN2 cellular inhibition assay (AlphaScreen SureFire P-eIF2α Ser51, borrelidin-treated U2OS cells)
- Format: cell-based
- COND: compounds of Formula II; biomarker assay, phosphorylated eIF2α Ser51 in borrelidin-treated U2OS cells
The molecules listed here are annotated with their IC50.
ASSAY READOUT: IC50

{"MOLECULE": "CC1CN(c2cc(-c3cnc4ccc(C(F)F)nn34)ncn2)CC1CNS(C)(=O)=O (stereo not shown) [II-238]", "REPORTED MEASUREMENT": "500 to 5000 nM"}
{"MOLECULE": "FC(F)c1ccc2ncc(-c3cc(C4CCCN(C5COC5)C4)ncn3)n2n1 (single isomer, unassigned) [II-242]", "REPORTED MEASUREMENT": "> 5000 nM"}
{"MOLECULE": "NC(=O)C1COCCN(c2cc(-c3cnc4ccc(C(F)F)nn34)ncn2)C1 (stereo not shown)", "REPORTED MEASUREMENT": "> 5000 nM"}
{"MOLECULE": "CS(=O)(=O)NCC1CN(c2cc(-c3cnc4ccc(Cl)nn34)ccn2)CCO1 (stereo not shown)", "REPORTED MEASUREMENT": "500 to 5000 nM"}
{"MOLECULE": "CC1C(CNS(C)(=O)=O)C(C)(O)CCN1c1cc(-c2cnc3ccc(C(F)F)nn23)ncn1 (stereo not shown)", "REPORTED MEASUREMENT": "< 500 nM"}
{"MOLECULE": "C[C@H](NS(C)(=O)=O)[C@@H]1CN(c2cc(-c3cnc4ccc(C(F)F)nn34)ncn2)CCO1 (single isomer, unassigned)", "REPORTED MEASUREMENT": "< 500 nM"}
{"MOLECULE": "CC1C(CNS(C)(=O)=O)CCCN1c1cc(-c2cnc3ccc(C(F)F)nn23)ncn1 (single isomer, unassigned) [II-266]", "REPORTED MEASUREMENT": "< 500 nM"}
{"MOLECULE": "CNc1ccc2ncc(-c3ccnc(N4CCCC(CNS(C)(=O)=O)C4)c3)n2n1 (stereo not shown)", "REPORTED MEASUREMENT": "500 to 5000 nM"}
{"MOLECULE": "CC1CC(F)(F)C(CNS(C)(=O)=O)CN1c1cc(-c2cnc3ccc(C(F)F)nn23)ncn1 (stereo not shown) [II-434]", "REPORTED MEASUREMENT": "> 5000 nM"}
{"MOLECULE": "O=C(NCCO)N1CCCC(c2cc(-c3cnc4ccc(C(F)F)nn34)ncn2)C1 (stereo not shown)", "REPORTED MEASUREMENT": "500 to 5000 nM"}
{"MOLECULE": "Cc1[nH]ncc1C1CN(c2cc(-c3cnc4ccc(C(F)(F)F)nn34)ncn2)CC(C)O1 (stereo not shown)", "REPORTED MEASUREMENT": "500 to 5000 nM"}
{"MOLECULE": "CC(NS(C)(=O)=O)C1CCCN(c2cc(-c3cnc4ccc(C(F)F)nn34)ccn2)C1 (stereo not shown) [II-133]", "REPORTED MEASUREMENT": "500 to 5000 nM"}
{"MOLECULE": "CC(NS(C)(=O)=O)C1CN(c2cc(-c3cnc4ccc(C(F)F)nn34)ncn2)CCO1 (stereo not shown) [II-159]", "REPORTED MEASUREMENT": "500 to 5000 nM"}
{"MOLECULE": "CC(NS(C)(=O)=O)C1CN(c2ccnc(-c3cnc4ccc(C(F)F)nn34)c2)CCO1 (stereo not shown)", "REPORTED MEASUREMENT": "500 to 5000 nM"}
{"MOLECULE": "[2H]C([2H])([2H])N1CCN(c2cc(-c3cnc4ccc(C(F)F)nn34)ncn2)C(C)C1CNS(C)(=O)=O (stereo not shown)", "REPORTED MEASUREMENT": "< 500 nM"}
{"MOLECULE": "CC1=C(F)C(CNS(C)(=O)=O)CN(c2cc(-c3cnc4ccc(C(F)F)nn34)ncn2)C1 (stereo not shown)", "REPORTED MEASUREMENT": "< 500 nM"}

---

The molecules listed here are annotated with their Ki.
- ASSAY TARGET: GCN2 kinase (Homo sapiens)
- ASSAY DETAILS: GCN2 enzyme inhibition assay (Transcreener ADP2 fluorescence polarization)
- Assay type: biochemical
- COND: Enzyme activity for compounds of Formula IV; Ki(app), 280 μM ATP, 25° C.

{"MOLECULE": "FC(F)(F)c1cn2c(-c3nccc(N4CCC5(CC4)COC5)n3)cnc2cn1 [IV-511]", "Ki": "100 to 1000 nM"}
{"MOLECULE": "NC(=O)c1cn2c(-c3nccc(N4CCOCC4)n3)cnc2cn1 [IV-240]", "Ki": "100 to 1000 nM"}
{"MOLECULE": "C[C@H]1[C@@H](c2cn[nH]c2)OCCN1c1ccnc(-c2cnc3cnc(Br)cn23)n1 (racemic) [IV-306]", "Ki": "< 10 nM"}
{"MOLECULE": "O=C(Nc1ccccn1)[C@H]1CCCN(c2ccnc(-c3cnc4cnc(C(F)(F)F)cn34)n2)C1 [IV-740]", "Ki": "> 1000 nM"}
